Tested on: ALP in normal human articular chondrocytes (NHACs)
protocol: Alkaline Phosphatase (ALP) activity assay (staining and quantitation) in NHACs, prevention of chondrocyte hypertrophy
Type: cell-based
experimental parameters: Chondrocyte, 288 h, human IL-1 beta 10 ng/mL, 12 days, Fast Blue RR staining, high content imaging, read-out: ALP in NHAC IC50
Protocol: The compounds of the present invention were evaluated in the Alkaline Phosphatase (ALP) activity assay to determine the ability of the compounds to prevent chondrocyte hypertrophy in normal human articular chondrocytes (NHACs). […] The staining was imaged by fluorescent microscopy, using the 561 nm wavelength, and/or quantified by high content imaging with the Image press Confocal (Molecular Devices, Sunnyvale, Calif.). […]
Examples of compounds with documented IC50 follow.
property name: IC50 (µM)

compound="O=C(Nc1cc(C(F)(F)F)ccc1F)[C@@H]1[C@@H](c2cccc(C(F)(F)F)c2)[C@H]2O[C@@H]1C[C@@H]2O (racemic)" target_or_system="ALP in normal human articular chondrocytes (NHACs)" sign_qualifier== result_number=29
compound="Cn1nc(C(F)(F)F)cc1[C@H]1[C@H]2O[C@H](C[C@@H]2O)[C@@H]1C(=O)Nc1cc(C(F)(F)F)ccc1C#N (racemic)" target_or_system="ALP in normal human articular chondrocytes (NHACs)" sign_qualifier== result_number=2.1
compound="COc1cc([C@H]2[C@H]3O[C@H](C[C@@H]3O)[C@@H]2C(=O)Nc2ccc(C(F)(F)F)c(Cl)c2)ccn1 (racemic)" target_or_system="ALP in normal human articular chondrocytes (NHACs)" sign_qualifier== result_number=12
compound="O=C(Nc1cc(C(F)(F)F)cc(Cl)n1)[C@@H]1[C@@H](c2cccc(C(F)(F)F)c2)[C@H]2O[C@@H]1C[C@@H]2O (racemic)" target_or_system="ALP in normal human articular chondrocytes (NHACs)" sign_qualifier== result_number=27
compound="Cc1ccc(C(F)(F)F)cc1NC(=O)[C@@H]1[C@@H](c2cn(C)nc2C(F)(F)F)[C@H]2O[C@@H]1C[C@@H]2O (racemic)" target_or_system="ALP in normal human articular chondrocytes (NHACs)" sign_qualifier== result_number=4.1
compound="Cc1cc(NC(=O)[C@@H]2[C@@H](c3cccc(C(F)(F)F)c3)[C@H]3O[C@@H]2C[C@@H]3O)cc(C(F)(F)F)c1 (racemic)" target_or_system="ALP in normal human articular chondrocytes (NHACs)" sign_qualifier== result_number=11
compound="Cn1cc([C@H]2[C@H]3O[C@H](C[C@@H]3O)[C@@H]2C(=O)Nc2ccc(C#N)c(C(F)(F)F)c2)c(C(F)(F)F)n1 (racemic)" target_or_system="ALP in normal human articular chondrocytes (NHACs)" sign_qualifier=> result_number=30
compound="Cn1nc(C(F)(F)F)cc1[C@H]1[C@H]2O[C@H](C[C@@H]2O)[C@@H]1C(=O)Nc1ccc(C(F)(F)F)cc1 (racemic)" target_or_system="ALP in normal human articular chondrocytes (NHACs)" sign_qualifier== result_number=16
compound="Cc1cc(C(F)(F)F)cc(NC(=O)[C@@H]2[C@@H](c3cn(C)nc3C(F)(F)F)[C@H]3O[C@@H]2C[C@@H]3O)n1 (racemic)" target_or_system="ALP in normal human articular chondrocytes (NHACs)" sign_qualifier== result_number=6.3
compound="O=C(Nc1ccc(Cl)c(C(F)(F)F)c1)[C@@H]1[C@@H](c2cccc(C(F)(F)F)c2)[C@H]2O[C@@H]1C[C@@H]2O (racemic)" target_or_system="ALP in normal human articular chondrocytes (NHACs)" sign_qualifier== result_number=8
compound="COc1cc([C@H]2[C@H]3O[C@H](C[C@@H]3O)[C@@H]2C(=O)Nc2cc(C)cc(C(F)(F)F)c2)ccn1 (racemic)" target_or_system="ALP in normal human articular chondrocytes (NHACs)" sign_qualifier== result_number=25
compound="COc1cc([C@H]2[C@H]3O[C@H](C[C@@H]3O)[C@@H]2C(=O)Nc2ccc(C(F)(F)F)cc2)ccn1 (racemic)" target_or_system="ALP in normal human articular chondrocytes (NHACs)" sign_qualifier=> result_number=30
compound="O=C(Nc1ccc(C(F)(F)F)c(F)c1)[C@@H]1[C@@H](c2cccc(C(F)(F)F)c2)[C@H]2O[C@@H]1C[C@@H]2O (racemic)" target_or_system="ALP in normal human articular chondrocytes (NHACs)" sign_qualifier== result_number=12
compound="O=C(Nc1ccc(C(F)(F)F)cn1)[C@@H]1[C@@H](c2cccc(C(F)(F)F)c2)[C@H]2O[C@@H]1C[C@@H]2O (racemic)" target_or_system="ALP in normal human articular chondrocytes (NHACs)" sign_qualifier== result_number=11
compound="COc1cc([C@H]2[C@H]3O[C@H](C[C@@H]3O)[C@@H]2C(=O)Nc2cc(C(F)(F)F)ccc2C#N)ccn1 (racemic)" target_or_system="ALP in normal human articular chondrocytes (NHACs)" sign_qualifier== result_number=0.055
compound="O=C(Nc1cc(Cl)cc(C(F)(F)F)c1)[C@@H]1[C@@H](c2cccc(C(F)(F)F)c2)[C@H]2O[C@@H]1C[C@@H]2O (racemic)" target_or_system="ALP in normal human articular chondrocytes (NHACs)" sign_qualifier== result_number=11
compound="Cn1cc([C@H]2[C@H]3O[C@H](C[C@@H]3O)[C@@H]2C(=O)Nc2ccc(F)c(C(F)(F)F)c2)c(C(F)(F)F)n1 (racemic)" target_or_system="ALP in normal human articular chondrocytes (NHACs)" sign_qualifier== result_number=7.9
compound="Cn1cc([C@H]2[C@H]3O[C@H](C[C@@H]3O)[C@@H]2C(=O)Nc2cc(F)cc(C(F)(F)F)c2)c(C(F)(F)F)n1 (racemic)" target_or_system="ALP in normal human articular chondrocytes (NHACs)" sign_qualifier== result_number=7
compound="Cc1cc(NC(=O)[C@@H]2[C@@H](c3cc(C(F)(F)F)nn3C)[C@H]3O[C@@H]2C[C@@H]3O)cc(C(F)(F)F)c1 (racemic)" target_or_system="ALP in normal human articular chondrocytes (NHACs)" sign_qualifier=> result_number=30
compound="O=C(Nc1ccc(C(F)(F)F)c(Cl)n1)[C@@H]1[C@@H](c2cccc(C(F)(F)F)c2)[C@H]2O[C@@H]1C[C@@H]2O (racemic)" target_or_system="ALP in normal human articular chondrocytes (NHACs)" sign_qualifier== result_number=2.9
compound="CC(C)n1cc([C@H]2[C@H]3O[C@H](C[C@@H]3O)[C@@H]2C(=O)Nc2ccc(C(F)(F)F)c(Cl)c2)c(C(F)(F)F)n1 (racemic)" target_or_system="ALP in normal human articular chondrocytes (NHACs)" sign_qualifier== result_number=14
compound="Cn1cc([C@H]2[C@H]3O[C@H](C[C@@H]3O)[C@@H]2C(=O)Nc2cc(C(F)(F)F)ccn2)c(C(F)(F)F)n1 (racemic)" target_or_system="ALP in normal human articular chondrocytes (NHACs)" sign_qualifier== result_number=3.6
compound="O=C(Nc1cccc(C(F)(F)F)c1)[C@@H]1[C@@H](c2cnc(C(F)(F)F)nc2)[C@H]2O[C@@H]1C[C@@H]2O (racemic)" target_or_system="ALP in normal human articular chondrocytes (NHACs)" sign_qualifier== result_number=24
compound="COc1cc([C@H]2[C@H]3O[C@H](C[C@@H]3O)[C@@H]2C(=O)Nc2cc(C(F)(F)F)ccc2F)ccn1 (racemic)" target_or_system="ALP in normal human articular chondrocytes (NHACs)" sign_qualifier== result_number=7.2
